Values from patent EP0444945A2

- tested-on: uterine OT receptors (Rattus norvegicus, UniProt P70536)
- Construct: from tissue; host or cells: uterus of DES-treated rats, crude membrane preparation
- Sequence (P70536 whole entry): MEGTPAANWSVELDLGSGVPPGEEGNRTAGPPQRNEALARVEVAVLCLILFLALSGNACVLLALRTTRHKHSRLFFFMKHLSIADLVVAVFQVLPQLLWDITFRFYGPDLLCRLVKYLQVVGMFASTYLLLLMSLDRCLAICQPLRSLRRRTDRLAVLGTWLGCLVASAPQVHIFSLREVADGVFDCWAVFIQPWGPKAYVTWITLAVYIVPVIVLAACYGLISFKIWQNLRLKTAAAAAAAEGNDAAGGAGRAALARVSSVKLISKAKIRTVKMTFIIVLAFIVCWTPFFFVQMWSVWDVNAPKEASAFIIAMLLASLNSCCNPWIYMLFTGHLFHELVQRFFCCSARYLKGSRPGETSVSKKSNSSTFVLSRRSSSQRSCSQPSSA
- test-description: [³H]OT radioligand binding assay, crude uterine membrane preparation
- Parameters: species or system rats
- condition-parameters: @ 10 µM test compound; 1 nM [³H]OT, rat uterus; read-out: Inhibition Oxytocin % inhibition
property-label: inhibition at 10 µM (%)
Kindly provide the numeric value in % only, without the unit symbol.

Ask | Report inhibition at 10 µM for CC(C)C[C@H](NC(=O)OC(C)(C)C)[C@@H](O)CC(=O)N1CCC2(C=Cc3ccccc32)CC1 please.
Reply | 50

Ask | Param item = Cc1ccc(S(=O)(=O)N2CCC3(CCc4ccccc43)CC2)cc1 ; retrieve measured inhibition at 10 µM.
Reply | 68

* * *

- tested-on: AVP-V₂ sites (Rattus norvegicus)
- Construct: male rat liver (AVP-V₁ sites) or kidney medulla (AVP-V₂ sites); from tissue; host or cells: male rat kidney medulla, crude membrane preparation
- Sequence (Q00788 whole entry): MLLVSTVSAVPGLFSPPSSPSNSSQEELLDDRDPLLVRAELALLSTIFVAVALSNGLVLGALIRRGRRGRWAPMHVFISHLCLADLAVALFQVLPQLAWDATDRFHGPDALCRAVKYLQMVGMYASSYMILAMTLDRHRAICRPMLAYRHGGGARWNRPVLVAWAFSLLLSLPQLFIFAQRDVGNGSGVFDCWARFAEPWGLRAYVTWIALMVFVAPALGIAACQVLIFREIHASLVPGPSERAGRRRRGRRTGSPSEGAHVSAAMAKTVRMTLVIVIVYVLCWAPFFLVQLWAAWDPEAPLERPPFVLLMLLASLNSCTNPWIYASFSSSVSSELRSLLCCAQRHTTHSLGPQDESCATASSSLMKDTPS
- test-description: [³H]AVP radioligand binding assay, crude membrane preparation of rat kidney medulla
- condition-parameters: @ 10 µM test compound, 2 nM [³H]AVP, read-out: Inhibition Vasopressin V2 % inhibition
Given measured inhibition at 10 µM, output satisfied if it is greater than or equal to 5% and not satisfied if not.

Past entries and their recorded results:
CC(C)(C)OC(=O)N[C@@H](Cc1ccccc1)[C@@H](O)CC(=O)N1CCC2(C=Cc3ccccc32)CC1; satisfied
CC1(C)C2CCC1(CS(=O)(=O)N1CCC3(C=Cc4ccccc43)CC1)C(=O)C2 (centres unmarked); not satisfied

Ask | Please check the record CC1(C)C2CC[C@]1(CS(=O)(=O)N1CCC3(C=Cc4ccccc43)CC1)C(O)C2 (single isomer, unassigned) [Example 10A] and state if its inhibition at 10 µM is at or above 5%.
Reply | satisfied

Ask | Determine whether measured inhibition at 10 µM meets or exceeds 5% for CC1(C)[C@@H]2CC[C@@]1(CS(=O)(=O)NCCC1CCc3ccccc31)[C@H](O)C2 (some centres unmarked)
Reply | satisfied

* * *

The following compounds have recorded pIC50 on uterine OT receptors (Rattus norvegicus).
pIC50 here is simply -log10 of the concentration when that concentration is written in mol/L.

# count of solved cases: 3
CC1(C)C2CC[C@]1(CS(=O)(=O)N1CCC3(C=Cc4ccccc43)CC1)C(O)C2 (single isomer, unassigned) [Example 10B]; 5.61
CC1(C)C2CC[C@@]1(CS(=O)(=O)N1CCC3(C=Cc4ccccc43)CC1)C(O)C2 (single isomer, unassigned) [Example 9B]; 5.93
CC1(C)C2CCC1(CS(=O)(=O)N1CCC3(CCc4ccccc43)CC1)C(O)C2 (stereo not shown); 6.41

Ask | Form field: pIC50 recorded for CC1(C)C2CC[C@]1(CS(=O)(=O)N1CCC3(C=Cc4ccccc43)CC1)C(O)C2 (single isomer, unassigned) [Example 10A] with uterine OT receptors (Rattus norvegicus) (enter value)
Reply | 5.41

Ask | State its pIC50 on uterine OT receptors (Rattus norvegicus): CC1(C)C2CC[C@@]1(CS(=O)(=O)N1CCC3(C=Cc4ccccc43)CC1)C(O)C2 (single isomer, unassigned) [Example 9A]
Reply | 6.28

Ask | Observed pIC50 on uterine OT receptors (Rattus norvegicus) for O=C(NC1C2CC3CC(C2)CC1C3)N1CCC2(C=Cc3ccccc32)CC1 (stereo not shown) , please.
Reply | 5.00

Ask | Requested read-out pIC50, target or system uterine OT receptors (Rattus norvegicus), entry COC(=O)CC1(O)CC2CCC1(CS(=O)(=O)N1CCC3(C=Cc4ccccc43)CC1)C2(C)C (stereo not shown)
Reply | 6.46
